Value source: patent US20210361639A1

Assay: Multiple oral dose (every 6 hours) pharmacokinetics of atazanavir
Format: in vivo, Wistar rats
Conditions: male, Wistar; multiple oral dose 10 mg/kg atazanavir every 6 hours, steady state, rat plasma
Description: All animal work was conducted in accordance with the Animals (Scientific Procedures) Act 1986 (ASPA) implemented by the UK Home Office. The rodents were housed with environmental enrichment and a 12 h light/dark cycle at 21° C.±2° C. Free access to food and water was provided at all times. […]
ASSAY READOUT: Tmax (h)
Numbers only, in h.

## Input Record request: Tmax value, item COC(=O)N[C@H](C(=O)N[C@@H](Cc1ccccc1)[C@@H](O)CN(Cc1ccc(-c2ccccn2)cc1)NC(=O)[C@@H](NC(=O)OC)C(C)(C)C)C(C)(C)C
## Output 1

---

Assay: Multiple oral dose (every 6 hours) pharmacokinetics of atazanavir
Assay type: in vivo, Wistar rats
Details: male, Wistar; multiple oral dose 10 mg/kg atazanavir every 6 hours, steady state, rat plasma
Method: All animal work was conducted in accordance with the Animals (Scientific Procedures) Act 1986 (ASPA) implemented by the UK Home Office. The rodents were housed with environmental enrichment and a 12 h light/dark cycle at 21° C.±2° C. Free access to food and water was provided at all times. […]
ASSAY READOUT: AUC(0-t) (ng·h/mL)
One number for each entry, in ng·h/mL.

## Input Record request: AUC(0-t) value, item COC(=O)N[C@H](C(=O)N[C@@H](Cc1ccccc1)[C@@H](O)CN(Cc1ccc(-c2ccccn2)cc1)NC(=O)[C@@H](NC(=O)OC)C(C)(C)C)C(C)(C)C [Aqueous atazanavir, atazanavir]
## Output 15500

---

Assay: Single oral dose pharmacokinetics of atazanavir
Set-up: species or system Wistar rats
Conditions: male, Wistar, rat, in vivo, 10 mg/kg
ASSAY READOUT: AUC(0-t) (ng·h/mL)
Numbers only, in ng·h/mL.

## Input Record request: AUC(0-t) value, item COC(=O)N[C@H](C(=O)N[C@@H](Cc1ccccc1)[C@@H](O)CN(Cc1ccc(-c2ccccn2)cc1)NC(=O)[C@@H](NC(=O)OC)C(C)(C)C)C(C)(C)C
## Output 60400
